System: MET(M1250T);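 further: KINOMEscan scanMAX binding as percent activity remaining versus control; lower means stronger binding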
cond: Compound Concentration (nM):1000
test-readout: Percent Control (%)
Give bare numbers, in %.

{"compound": "COc1cc(C=NNc2ncnc3c2cnn3-c2ccccc2)ccc1O [GW513184X]", "test-readout": "Percent Control", "readout-value": 21}
{"compound": "Nc1ncnc2occ(-c3ccc(NC(=O)Nc4cc(C(F)(F)F)ccc4F)cc3)c12 [GW770249X]", "test-readout": "Percent Control", "readout-value": 49}
{"compound": "O=C(Nc1n[nH]c2nc(-c3ccc(O)cc3)c(Br)cc12)C1CC1", "test-readout": "Percent Control", "readout-value": 100}
{"compound": "CN(C)CCNC(=O)Nc1ccc(N(C)c2ccnc(Nc3ccc(CS(C)(=O)=O)cc3)n2)cc1.Cl [GW830900A]", "test-readout": "Percent Control", "readout-value": 22}

Dear reader, for each entry below, please note its Percent Control.
1. COc1cc(/C=N/Nc2ncnc3[nH]ncc23)ccc1O [GW578748X]
2. COc1cccc(-c2c[nH]c3c(N/N=C/c4ccncc4)ncnc23)c1 [GW814408X]
3. COc1ccccc1-c1cc(/C=C2\C(=O)Nc3ncc(Br)cc32)cc(Br)c1O [GW442130X]
4. COc1ccc2cc(-c3c(-c4ccncc4)nc(-c4ccc(S(C)(=O)=O)cc4C)n3C)ccc2c1
5. CCn1c(-c2nonc2N)nc2c(C#CC(C)(C)O)nc(OCCNC)cc21.Cl

84
54
96
76
100
